Could you please report measured IC50 for the items listed next?
# EXPERIMENTAL SYSTEM: Recombinant (1-346) HPK1 (h) (Homo sapiens, UniProt Q92918)
# Construct: Recombinant (1-346) HPK1 (h) is incubated with 8 mM MOPS pH 7.0
# Sequence (Q92918 1-346): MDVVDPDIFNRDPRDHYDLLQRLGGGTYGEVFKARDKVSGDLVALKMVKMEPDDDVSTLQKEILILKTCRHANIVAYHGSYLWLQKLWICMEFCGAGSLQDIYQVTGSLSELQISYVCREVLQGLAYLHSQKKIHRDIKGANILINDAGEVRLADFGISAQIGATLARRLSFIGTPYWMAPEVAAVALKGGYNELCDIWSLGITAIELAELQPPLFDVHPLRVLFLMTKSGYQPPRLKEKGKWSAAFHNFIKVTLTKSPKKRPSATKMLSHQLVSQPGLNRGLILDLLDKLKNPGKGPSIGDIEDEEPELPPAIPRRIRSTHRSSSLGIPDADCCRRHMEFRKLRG
# ASSAY OVERVIEW: HPK1 human STE kinase enzymatic radiometric assay
# Format: biochemical
# STUDY CONDITIONS: read-out: HPK1 IC50 nM Range

C[C@@H]1CCCN1Cc1cc(-c2nc(-c3ccc4c(=O)[nH]cc(Cl)c4c3)c(N)nc2F)ccc1C1CCOCC1: 11 to 100 nM
CCN(C)Cc1cc(-c2nc(-c3ccc4c(c3)C(F)(F)CNC4=O)c(N)nc2F)ccc1C1=CCOCC1: 11 to 100 nM
CN(C)Cc1cc(-c2nc(-c3cc4c(cc3F)C(=O)NCC4)c(N)nc2F)ccc1N1CCSCC1: 0.1 to 10 nM

Shift focus to the following entry.
The compound listed as `CCN(C)Cc1cc(-c2nc(-c3ccc4c(c3)CCNC4=O)c(N)nc2F)ccc1C1CCOCC1` shows IC50 equal to 0.1 to 10 nM
